- ASSAY SYSTEM: CYP2D6 (Homo sapiens (Human), UniProt P10635)
- Sequence (P10635 whole entry): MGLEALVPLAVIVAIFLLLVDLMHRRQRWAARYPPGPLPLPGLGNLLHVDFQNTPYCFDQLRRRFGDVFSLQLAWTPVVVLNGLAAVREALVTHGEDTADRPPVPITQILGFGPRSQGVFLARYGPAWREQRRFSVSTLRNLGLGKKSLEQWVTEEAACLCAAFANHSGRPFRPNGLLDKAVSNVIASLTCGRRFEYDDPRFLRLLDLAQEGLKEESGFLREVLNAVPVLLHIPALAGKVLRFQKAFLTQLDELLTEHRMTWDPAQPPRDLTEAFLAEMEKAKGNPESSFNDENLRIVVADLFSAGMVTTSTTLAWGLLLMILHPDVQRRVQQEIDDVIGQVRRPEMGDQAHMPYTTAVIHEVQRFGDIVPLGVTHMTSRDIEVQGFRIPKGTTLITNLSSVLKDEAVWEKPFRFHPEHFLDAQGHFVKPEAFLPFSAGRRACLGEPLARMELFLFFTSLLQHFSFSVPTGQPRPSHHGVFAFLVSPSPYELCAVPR
- TEST PROTOCOL: Cytochrome P450 inhibition assay, recombinant CYP2D6 (MAMC substrate)
- Assay type: in vitro ADME
- CONDITION CONTEXT: recombinant enzyme
pIC50: −log10 of the molar value.
PARAMETER: pIC50

Guide cases for pIC50, answers given:
[
  {
    "SMILES STR": "CNC[C@H](c1ccc2ccccc2c1)[C@H](OCc1cc(C)on1)c1ccccc1",
    "ASSAY SYSTEM": "CYP2D6 (Homo sapiens (Human), UniProt P10635)",
    "pIC50": 6.48
  },
  {
    "SMILES STR": "CNC[C@H](c1ccc(Cl)c(Cl)c1)[C@@H](O)c1ccccc1S(C)(=O)=O",
    "ASSAY SYSTEM": "CYP2D6 (Homo sapiens (Human), UniProt P10635)",
    "pIC50": 6.42
  },
  {
    "SMILES STR": "CNC[C@H](c1ccc2ccccc2c1)[C@H](Cl)c1ccccc1",
    "ASSAY SYSTEM": "CYP2D6 (Homo sapiens (Human), UniProt P10635)",
    "pIC50": 7.04
  },
  {
    "SMILES STR": "CNC[C@H](c1ccc2ccccc2c1)[C@H](OCC(=O)N1CC[C@H](O)C1)c1ccccc1",
    "ASSAY SYSTEM": "CYP2D6 (Homo sapiens (Human), UniProt P10635)",
    "pIC50": 4.70
  }
]

(P) CNC[C@H](c1ccc(Cl)c(Cl)c1)[C@@H](O)c1cccc(Br)c1
(Q) CNC[C@H](c1ccc(Cl)c(Cl)c1)[C@@H](O)c1ccccc1I
*Q* Which numeric pIC50 is bigger, that of P or that of Q ? # answer = label of selected item
*A* Q

----------
- ASSAY SYSTEM: human serotonin transporter (Homo sapiens (Human), UniProt P31645)
- Sequence (P31645 whole entry): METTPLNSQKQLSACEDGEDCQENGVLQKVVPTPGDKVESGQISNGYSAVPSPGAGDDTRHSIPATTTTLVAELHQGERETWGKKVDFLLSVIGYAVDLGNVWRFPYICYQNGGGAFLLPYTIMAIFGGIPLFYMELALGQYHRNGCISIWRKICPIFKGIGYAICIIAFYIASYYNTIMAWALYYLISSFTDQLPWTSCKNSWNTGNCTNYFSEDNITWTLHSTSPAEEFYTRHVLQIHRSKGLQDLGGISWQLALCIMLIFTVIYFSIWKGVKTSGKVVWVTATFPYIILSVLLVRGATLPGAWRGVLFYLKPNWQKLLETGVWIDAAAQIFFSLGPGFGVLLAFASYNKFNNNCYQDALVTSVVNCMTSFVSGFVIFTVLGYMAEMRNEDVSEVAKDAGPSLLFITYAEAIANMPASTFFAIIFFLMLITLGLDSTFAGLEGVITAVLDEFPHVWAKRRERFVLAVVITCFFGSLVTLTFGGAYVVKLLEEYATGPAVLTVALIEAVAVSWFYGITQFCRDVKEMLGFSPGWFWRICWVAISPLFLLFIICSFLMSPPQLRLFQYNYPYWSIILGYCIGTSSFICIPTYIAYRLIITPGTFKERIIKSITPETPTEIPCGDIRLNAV
- TEST PROTOCOL: Human SERT (serotonin transporter) uptake assay
- Format: cell-based
- CONDITION CONTEXT: read-out: hSERT Ki
pKi: −log10 of the molar value.
PARAMETER: pKi

Check out these entries, answers already filled in.
[
  {
    "MOLECULE": "CNC[C@H](c1ccc2ccccc2c1)[C@H](OCC(=O)N1CCCC1)c1ccccc1 [Compound 50]",
    "pKi": 8.54
  },
  {
    "MOLECULE": "CNC[C@H](c1ccc(Cl)c(Cl)c1)[C@@H](O)c1ccccc1[N+](=O)[O-] [Compound 65]",
    "pKi": 6.61
  }
]

(P) CNC[C@@H](c1ccc2ccccc2c1)[C@H](O)c1ccccn1 (racemic) [Compound 72]
(Q) CNC[C@H](c1ccc2ccccc2c1)[C@H](OCC(=O)N1CCOCC1)c1ccccc1 [Compound 23]
(R) CNC[C@H](c1ccc(Cl)c(Cl)c1)[C@@H](O)c1cccc(N)c1 [Compound 63]
*Q* Rank order required: pKi, descending. Please write the labels in the order that was asked for.
*A* Q, P, R

----------
Collected pIC50 values appear next to each entry.
- ASSAY SYSTEM: hERG (Homo sapiens (Human), UniProt Q12809)
- Sequence (Q12809 whole entry): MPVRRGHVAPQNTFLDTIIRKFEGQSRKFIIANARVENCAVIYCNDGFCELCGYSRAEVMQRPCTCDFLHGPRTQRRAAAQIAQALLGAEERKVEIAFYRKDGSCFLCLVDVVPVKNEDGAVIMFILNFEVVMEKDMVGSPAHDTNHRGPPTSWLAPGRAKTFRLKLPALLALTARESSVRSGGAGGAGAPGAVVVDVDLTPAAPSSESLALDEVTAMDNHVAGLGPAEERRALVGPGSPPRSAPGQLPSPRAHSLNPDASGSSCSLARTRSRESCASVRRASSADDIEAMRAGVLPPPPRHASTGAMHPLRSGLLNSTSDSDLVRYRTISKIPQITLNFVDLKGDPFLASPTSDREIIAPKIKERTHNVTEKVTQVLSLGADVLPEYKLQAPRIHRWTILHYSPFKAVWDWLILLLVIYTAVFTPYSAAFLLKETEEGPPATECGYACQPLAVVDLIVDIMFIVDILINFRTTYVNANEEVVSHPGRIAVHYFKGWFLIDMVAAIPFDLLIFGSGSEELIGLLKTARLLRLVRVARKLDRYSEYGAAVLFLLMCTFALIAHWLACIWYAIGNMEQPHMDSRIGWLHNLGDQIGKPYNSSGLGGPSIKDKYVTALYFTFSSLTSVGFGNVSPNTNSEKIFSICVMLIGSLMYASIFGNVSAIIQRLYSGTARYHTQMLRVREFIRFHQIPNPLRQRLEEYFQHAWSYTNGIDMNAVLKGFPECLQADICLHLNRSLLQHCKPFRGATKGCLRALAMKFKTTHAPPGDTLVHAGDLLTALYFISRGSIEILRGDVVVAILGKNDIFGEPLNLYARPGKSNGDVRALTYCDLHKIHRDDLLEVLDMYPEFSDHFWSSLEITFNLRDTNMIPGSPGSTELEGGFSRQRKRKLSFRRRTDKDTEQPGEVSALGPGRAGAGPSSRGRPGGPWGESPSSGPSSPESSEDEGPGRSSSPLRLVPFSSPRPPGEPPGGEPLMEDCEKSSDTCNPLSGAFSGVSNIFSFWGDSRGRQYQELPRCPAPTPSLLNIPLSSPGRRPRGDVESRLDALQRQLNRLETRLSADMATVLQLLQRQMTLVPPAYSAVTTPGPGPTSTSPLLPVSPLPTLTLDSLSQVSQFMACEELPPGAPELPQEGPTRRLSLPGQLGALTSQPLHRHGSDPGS
- TEST PROTOCOL: Human ERG (hERG) assay, hERG currents in hERG-expressing CHO cells
- Assay type: cell-based
- CONDITION CONTEXT: hERG-expressing CHO cells
- Procedure: The voltage-dependent potassium channel encoded by the human ether-a-go-go-related gene (hERG) is believed to play a key role in repolarisation of the ventricular cardiac action potential. […] This can lead to prolongation of the QT interval recorded in man on an electrocardiogram and to a potentially fatal cardiac arrhythmia known as Torsades de Pointes. hERG currents were recorded from hERG-expressing CHO cells. […]
Give only the number. pIC50 is defined as minus log10 of concentration in molar units.

Here are 6 molecules together with their reported answers.
[
  {
    "MOLECULE": "CNC[C@H](c1ccc2ccccc2c1)[C@H](F)c1ccccc1 [Compound 9]",
    "PARAMETER": "pIC50",
    "ENDPOINT RESULT": 5.02
  },
  {
    "MOLECULE": "CNCC(Cc1ccccc1C)c1ccc2ccccc2c1 (stereo not shown) [Compound 39]",
    "PARAMETER": "pIC50",
    "ENDPOINT RESULT": 5.09
  },
  {
    "MOLECULE": "CNC[C@H](C[C@H](O)c1ccccc1)c1ccc2ccccc2c1 [Compound 93]",
    "PARAMETER": "pIC50",
    "ENDPOINT RESULT": 4.89
  },
  {
    "MOLECULE": "CNC[C@H](c1ccc2ccccc2c1)[C@H](OCC(=O)N1CC[C@H](O)C1)c1ccccc1 [Compound 19]",
    "PARAMETER": "pIC50",
    "ENDPOINT RESULT": 4.48
  },
  {
    "MOLECULE": "CNC[C@H](c1ccc(Cl)c(Cl)c1)[C@H](O)c1cccc(Br)c1 [Compound 76]",
    "PARAMETER": "pIC50",
    "ENDPOINT RESULT": 5.52
  },
  {
    "MOLECULE": "CNC[C@H](c1ccc2ccccc2c1)[C@H](OCC(=O)N(C)C)c1ccccc1 [Compound 33]",
    "PARAMETER": "pIC50",
    "ENDPOINT RESULT": 4.48
  }
]

*Q* // lookup pIC50 for CNC[C@H](c1ccc(Br)c(Cl)c1)[C@@H](O)c1ccccc1 [Compound 21]
*A* 4.64
